The values you see were collected from PubChem BioAssay AID504652.

Listing of entries alongside the reported activity change, negative = inhibition.
- SUBJECT_OF_TEST: D(1A) dopamine receptor (Homo sapiens)
- ASSAY_REMARKS: Antagonist of Human D 1 Dopamine Receptor: qHTS; further: on the % scale 0 is the no-effect control and ±100 the full control effect
- CONDITION_SUMMARY: HEK293 TREx D1 cells, calcium flux, dopamine EC80; at 10 µM; active compounds read low
The whole screen tested about 360,000 compounds, of which about 11,000 (3.1%) were called active. The list comes from a sample in which actives are over-represented; it also holds close analogues and randomly drawn compounds.
Could you give me the number in %? Just the number is fine.

Incoming: Endpoint output: activity change, negative = inhibition of O=C(CCC(=O)N1CCCC1)Nc1ccc([N+](=O)[O-])cc1 . Value?
Outgoing: 15.5

Incoming: Please do the same for O=C(CSC1=Nc2ccccc2C2=NC(c3ccccc3)C(=O)N12)NCC1CCCO1 (stereo unspecified) as well.
Outgoing: -47

Incoming: Please do the same for O=C(Nc1ccc([N+](=O)[O-])cc1)C1(c2ccccc2)CCOCC1 as well.
Outgoing: -11.2
